# Lookup of reported koff keyed by entry
- Measurement Target: T1, SARS-CoV2 Spike ecto foldon Trimer expressed with a C-terminal myc-myc-hexahistidine (SARS-CoV-2, UniProt P0DTC2 14-1213)
- T1 construct: extracellular domain
- Assay Summary: SPR Biacore, mAb captured by anti-hFc, 25C

| Binder | koff / s⁻¹ |
| --- | --- |
| mAb14315 (antibody, V domains shown) VH: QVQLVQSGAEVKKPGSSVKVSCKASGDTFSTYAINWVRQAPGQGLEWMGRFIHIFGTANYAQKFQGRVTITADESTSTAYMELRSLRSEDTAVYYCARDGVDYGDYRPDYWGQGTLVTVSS VL: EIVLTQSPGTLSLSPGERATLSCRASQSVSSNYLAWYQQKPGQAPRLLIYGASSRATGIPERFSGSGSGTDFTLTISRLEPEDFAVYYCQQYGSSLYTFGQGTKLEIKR | 3.15e-05 |
| mAb14312 (antibody, V domains shown) VH: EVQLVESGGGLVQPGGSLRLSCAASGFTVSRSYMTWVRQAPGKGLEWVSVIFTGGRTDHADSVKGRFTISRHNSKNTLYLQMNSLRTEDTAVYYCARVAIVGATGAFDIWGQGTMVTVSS VL: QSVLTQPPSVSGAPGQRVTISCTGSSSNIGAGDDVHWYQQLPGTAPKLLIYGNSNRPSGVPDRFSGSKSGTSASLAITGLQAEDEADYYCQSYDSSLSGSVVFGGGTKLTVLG | 5.24e-05 |
